Quick list: melting point per entry.

compound	melting point
COc1cc2cccnc2c(N2CCN([C@H]3CC[C@@H](c4cn(C)c5ccc(C#N)cc54)CC3)CC2)n1	230 to 233 °C
CON1C(=O)CC2(CCN(C(=O)CCN3C=CCC(C(N)=O)=C3)CC2)C1=O	64 to 80 °C
CC(C)(CC(=O)O)C(=O)C(=O)O	134 to 135 °C
Cc1ccc(C)c(-c2nn(C(C)(C)C(=O)N(C)C)cc2C)c1	93 to 95 °C
CN(C(=O)c1ccc2nonc2c1)C1CCCOC1 (stereo not given)	134 to 135 °C

Incoming: # query: melting point of entry CSC1=NC(c2cccc([N+](=O)[O-])c2)C2=C(COC2=O)N1 (stereo not given)
Outgoing: 204 to 206 °C

Incoming: Follow-up item: CN(C(=O)COc1cc(-c2ccccc2)nc2ccccc12)c1ccccc1
Outgoing: 150 °C

Incoming: What about CCCc1c(C(=O)NCc2ccc(-c3ccc(OCC#N)c(Br)c3)cc2)cnn1-c1ccccc1 ?
Outgoing: 102 to 109 °C

Incoming: What would you report for O=C(O)c1c(C(F)(F)F)nc2cc(C(F)(F)F)ccc2c1O ?
Outgoing: 240 °C

Incoming: Now try CCc1nn2ccccc2c1-c1n[nH]c(=O)cc1C .
Outgoing: 216 to 217 °C
